Test system: monocotylidonous and dicotylidonous weed and crop plants
Assay: Herbicidal pre-emergence action
Format: in vivo
Details: 320 g/ha, AVEFA = Avena fatua, visual assessment after three weeks, 100% = plants have died
measure: herbicidal effect in percent, AVEFA (%)
Numeric answer only, unit % assumed.

Example entries begin here.
CCc1cc(C)cc(CC)c1C1C(=O)C2CC(C3OCCO3)CC2C1=O (stereo not shown)
90
CCc1cc(C)cc(CC)c1C1C(=O)C2CC(C(=O)OC)CC2C1=O (stereo not shown)
80

Return value of herbicidal effect in percent, AVEFA for input CCc1cc(C)cc(CC)c1C1C(=O)C2CC(C=O)CC2C1OC(=O)C(C)(C)C (stereo not shown) , no commentary.
80

Return value of herbicidal effect in percent, AVEFA for input CCc1cc(C)cc(CC)c1C1=C(O)C2CC(C=NOC)CC2C1=O (stereo not shown) , no commentary.
80
